# measurement_protocol: Inhibition of IL-6-induced cell adhesion in human U937 cells assessed as reduction in cell adhesion to HT-29 cells at 1 uM relative to control
# Type: functional
# condition: U-937
Outcome: met for inhibition at 1 µM of at least 30%; not met for anything lower.

compound	group_label
Cc1nc(NC(=O)C(Cl)Cl)c(C)c(C)c1O	met
Cc1nc(NC(=O)Cc2cccc(Br)c2)c(C)c(C)c1O	not met
CC(=O)Nc1nc(C)c(O)c(C)c1C	met
Cc1nc(NC(=O)CCc2ccccc2Br)c(C)c(C)c1O	not met
Cc1nc(NC(=O)C(Cl)c2ccccc2)c(C)c(C)c1O (configuration not stated)	not met
Cc1ccccc1CCC(=O)Nc1nc(C)c(O)c(C)c1C	not met
Cc1nc(NC(=O)CCc2ccccc2)c(C)c(C)c1O	met
CCCCCCCC(=O)Nc1nc(C)c(O)c(C)c1C	met
Cc1nc(NC(=O)CCCCl)c(C)c(C)c1O	not met
Cc1nc(NC(=O)CCc2ccc(Cl)cc2Cl)c(C)c(C)c1O	met
Cc1nc(NC(=O)CCc2ccc(Cl)cc2)c(C)c(C)c1O	not met
CCCCCCCCCCCC(=O)Nc1nc(C)c(O)c(C)c1C	met
Cc1nc(NC(=O)C(C)C)c(C)c(C)c1O	met
CCCCCCCCCCCCCCCC(=O)Nc1nc(C)c(O)c(C)c1C	not met
Cc1nc(NC(=O)Cc2ccccc2)c(C)c(C)c1O	met
Cc1nc(NC(=O)CC(C)C)c(C)c(C)c1O	met
CC(=O)OCC(=O)Nc1nc(C)c(O)c(C)c1C	not met
CCCC(=O)Nc1nc(C)c(O)c(C)c1C	not met
Cc1nc(NC(=O)Cc2ccc(F)cc2)c(C)c(C)c1O	not met
C=CCC(=O)Nc1nc(C)c(O)c(C)c1C	not met
Cc1nc(NC(=O)C2CCCCC2)c(C)c(C)c1O	met
Cc1nc(NC(=O)C2CCCC2)c(C)c(C)c1O	met
